# reported-conditions: buffer; pH 7.4; 200.0 µM
// solubility kinetic lookup, one value per entry
experimental-readout: solubility kinetic

compound="CC1CCC(NC(=O)C(C)N2C(=O)C3CCCCC3C2=O)CC1 (stereo not given)" test_value="> 48.1 µg/mL"
compound=CN1CCN(c2ccccc2/C=N/NC(=O)c2cccnc2)CC1 test_value="> 48.5 µg/mL"
compound=O=C(Nc1ccccc1N1CCCC1)C1=COCCO1 test_value="> 41.1 µg/mL"
compound=Cc1ccc(S(=O)(=O)N2CCOCC2)cc1C(=O)OCC(=O)NC1CCCC1 test_value="> 61.6 µg/mL"
compound="CC(C(=O)C12CC3CC(CC(C3)C1)C2)N1CCOCC1.Cl (stereo not given)" test_value="> 47.1 µg/mL"
compound=CN(C)/C=C/C(=O)c1ccc(F)cc1F test_value="> 31.7 µg/mL"
compound=NC(=S)Nc1ccc(Cl)c(Cl)c1 test_value="> 33.2 µg/mL"
compound=CC(C)[C@H](NC(=O)NCCC1=CCCCC1)C(=O)O test_value="> 40.3 µg/mL"
compound=Br.CCCCCCCCn1ccc(=N)cc1 test_value="> 43.1 µg/mL"
compound=CCc1nccn1S(=O)(=O)c1ccccc1[N+](=O)[O-] test_value="> 42.2 µg/mL"
compound="O=C(NCCCN1CCOCC1)C1CC(=O)N(c2ccccc2)C1 (stereo not given)" test_value="> 49.7 µg/mL"
compound=CCOc1ccccc1NC(=O)NCc1cccnc1 test_value="> 40.7 µg/mL"
compound="CC(CC(=O)O)CC(=O)Nc1cc([N+](=O)[O-])ccc1O (stereo not given)" test_value="> 42.3 µg/mL"
compound=N#Cc1cc2c(nc1SCC(=O)O)CCCCC2 test_value="> 39.3 µg/mL"
compound=Cc1noc(NS(=O)(=O)c2ccc(NC(=O)COc3ccc(C#N)cc3)cc2)c1C test_value="> 64 µg/mL"
compound=O=C(c1cccc2c1-c1ccccc1C2)N1CCCCC1 test_value="> 41.6 µg/mL"
compound=CCOc1ccc(S(=O)(=O)Nc2cnc3ccccc3c2)cc1 test_value="> 49.3 µg/mL"
compound=O=C(Nc1ccccc1O)N1c2ccccc2Sc2ccccc21 test_value="< 0.4 µg/mL"
compound=Cc1cccc(C(=O)N2CCC(c3nc4ccccc4s3)CC2)c1 test_value="> 50.5 µg/mL"
compound=C=CCNC(=O)COC(=O)CCC(=O)c1cccs1 test_value="> 42.2 µg/mL"
compound=CCOC(=O)C1=C(C)NC(C)=C(C(=O)OCC)C1C(=O)OCC(=O)N1CCOCC1 test_value="> 63.7 µg/mL"
compound=N#Cc1ccccc1-c1ccccc1C(=O)N1CCCCC1 test_value="> 43.6 µg/mL"
compound=O=C(O)CSc1nc2ccccc2s1 test_value="> 33.8 µg/mL"
compound="CC(C)COP(=O)(OCC(C)C)C(O)c1ccc(N(C)C)cc1 (stereo not given)" test_value="> 51.5 µg/mL"
compound=Cc1nc2cc(Cl)ccc2c(=O)n1Cc1ccncc1 test_value="> 42.9 µg/mL"

---

# reported-conditions: buffer; pH 7.4; 200.0 µM
experimental-readout: solubility kinetic

compound=COC(=O)CC1=NN(c2nc3ccccc3s2)C(=O)/C1=C/N(C)C experimental_readout="solubility kinetic" test_value="> 51.7 µg/mL"
compound=CCc1ccccc1NC(=O)C1CCN(S(C)(=O)=O)CC1 experimental_readout="solubility kinetic" test_value="> 46.6 µg/mL"
compound=O=C(O)CN(C1CCCCC1)S(=O)(=O)c1ccc(F)cc1 experimental_readout="solubility kinetic" test_value="> 47.3 µg/mL"
compound="Cn1ncc(C(=O)N=S(C)(=O)c2ccccc2)c1[N+](=O)[O-] (stereo unspecified)" experimental_readout="solubility kinetic" test_value="> 46.2 µg/mL"
compound="OC(CNCc1ccccc1C(F)(F)F)C(F)(F)F (stereo unspecified)" experimental_readout="solubility kinetic" test_value="> 43.1 µg/mL"
compound=COc1cc(C(=O)NC23CC4CC(CC(C4)C2)C3)cc(OC)c1OC experimental_readout="solubility kinetic" test_value="< 0.7 µg/mL"
compound="CC1(CO)COC2(OC1)C(=O)Nc1ccccc12 (stereo unspecified)" experimental_readout="solubility kinetic" test_value="> 37.4 µg/mL"
compound="O=C(Nc1nnc(Cc2ccc(Cl)cc2)s1)C1CCCO1 (stereo unspecified)" experimental_readout="solubility kinetic" test_value="> 48.6 µg/mL"
compound="CC1CCCCC1NC(=O)COc1ncnc2sccc12 (stereo unspecified)" experimental_readout="solubility kinetic" test_value="> 45.8 µg/mL"
compound="COC(=O)c1cc(NC(=O)CN(C)C2CCS(=O)(=O)C2)cc(C(=O)OC)c1.O=C(O)C(=O)O (stereo unspecified)" experimental_readout="solubility kinetic" test_value="> 73.3 µg/mL"
compound="COc1ccc(C(=O)NCC(=O)N2CCCC(C)C2)cc1OC (stereo unspecified)" experimental_readout="solubility kinetic" test_value="> 48.1 µg/mL"
compound="COc1cc2c(cc1OC)C(C(=O)NC(C)C)C1CCCCN1C2=O (stereo unspecified)" experimental_readout="solubility kinetic" test_value="> 52 µg/mL"
compound=COc1ccc(/C=C2/NC(=O)CNC2=O)cc1 experimental_readout="solubility kinetic" test_value="> 34.8 µg/mL"
compound=CCOC(=O)C1=C(C)NC(C)=C(C(=O)OCC)C1C(=O)OCC(=O)NCc1ccco1 experimental_readout="solubility kinetic" test_value="> 65.2 µg/mL"
compound=O=C(COC(=O)c1ccncc1)Nc1ccc2c(c1)OCO2 experimental_readout="solubility kinetic" test_value="> 45 µg/mL"
compound="Cc1ccc(NC(=O)N2CCN(C(=O)C3CCCO3)CC2)cc1 (stereo unspecified)" experimental_readout="solubility kinetic" test_value="> 47.6 µg/mL"
compound=CCOc1ccc(S(=O)(=O)NCCCl)cc1 experimental_readout="solubility kinetic" test_value="> 39.6 µg/mL"
compound=COc1ccc(-n2ccc3ccccc32)cc1 experimental_readout="solubility kinetic" test_value="< 0.5 µg/mL"
compound=COc1ccccc1N1CCN(C(=O)CCc2ccccc2)CC1 experimental_readout="solubility kinetic" test_value="> 48.7 µg/mL"
compound=COc1ccc(NC(=O)C(=S)NC2CCCCC2)cc1 experimental_readout="solubility kinetic" test_value="< 0.3 µg/mL"
compound="CCC(=O)N1CC(=O)Nc2ccc(F)cc2C1c1ccc(F)cc1 (stereo unspecified)" experimental_readout="solubility kinetic" test_value="> 49.6 µg/mL"
